system: SW1463 (Colorectal Carcinoma); assay: combination Emax (second highest fraction inhibited in the dose matrix, 72 h); higher = more inhibition; extreme values may be limits of the assay
PROPERTY: combination Emax
When you answer, write just the number.

INSERT INTO assay_data (molecule, readout_value) VALUES
  ('Cc1cc2ncnn2cc1Nc1ncc2c(n1)n(C1CCOCC1)c(=O)n2C [AZD7648] + C=CCn1c(=O)c2cnc(Nc3ccc(N4CCN(C)CC4)cc3)nc2n1-c1cccc(C(C)(C)O)n1 [AZD1775] (first compound max 10 µM, partner max 1 µM)', 0.411);

query: Could you please provide reported combination Emax for CN(CCO)CC[C@H](CSc1ccccc1)Nc1ccc(S(=O)(=O)NC(=O)c2ccc(N3CCC([C@@H](O)c4ccccc4-c4ccc(Cl)cc4)CC3)cc2)cc1S(=O)(=O)C(F)(F)F [AZD4320] + CS(=O)(=O)CCNCc1ccc(-c2ccc3ncnc(Nc4ccc(OCc5cccc(F)c5)c(Cl)c4)c3c2)o1 [Lapatinib] (first compound max 1 µM, 7x7, partner max 10 µM) ? Thanks!
result: 0.974

query: Could you please provide reported combination Emax for C[C@@H](Nc1cc(F)cc(F)c1)c1cc(C(=O)N(C)C)cc2c(=O)cc(N3CCOCC3)oc12 [AZD8186] + C1CN(CCC1(C(=O)N[C@@H](CCO)C2=CC=C(C=C2)Cl)N)C3=NC=NC4=C3C=CN4 [AZD5363] (first compound max 10 µM, 7x7, partner max 10 µM) ? Thanks!
result: 0.274

----------
Recorded Bliss excess values for a group of molecules are listed next.
test system: OCI-M1 (Acute Myeloid Leukemia); assay: Bliss excess, mean over the matrix (fraction); higher = more synergy;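 also: after 72 h of two-drug dosing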

INSERT INTO measurements (molecule, readout_value) VALUES
  ('CN(CCO)CC[C@H](CSc1ccccc1)Nc1ccc(S(=O)(=O)NC(=O)c2ccc(N3CCC([C@@H](O)c4ccccc4-c4ccc(Cl)cc4)CC3)cc2)cc1S(=O)(=O)C(F)(F)F [AZD4320] + C[C@@H](Nc1cc(F)cc(F)c1)c1cc(C(=O)N(C)C)cc2c(=O)cc(N3CCOCC3)oc12 [AZD8186] (first compound max 1 µM, 7x7, partner max 3 µM)', 0.0278);

query: State Bliss excess on OCI-M1 (Acute Myeloid Leukemia). Entry: Cc1c2c(nn1C)CSCc1cc(n(C)n1)CSc1cc(c3ccccc3c1)OCCCc1c(C(=O)O)n(C)c3c-2c(Cl)ccc13 [AZD5991] + Cn1cnc2c(F)c(Nc3ccc(Br)cc3Cl)c(C(=O)NOCCO)cc21 [Selumetinib] (first compound max 1 µM, 7x7, partner max 3 µM)
result: 0.03

----------
system: NCI-H1944 (Lung Adenocarcinoma); test: combination Emax (second highest fraction inhibited in the dose matrix, 72 h); higher = more inhibition; extreme values may be limits of the assay
Grouping rule (combination Emax): label 0 = under 0.2, label 1 = from 0.2 up to 0.8, label 2 = 0.8 and over

The following compounds have reported results that may help.
INSERT INTO results (compound, category_label) VALUES
  ('COc1cc2c(cc1OCCCCCOc1cc3c(cc1OC)C(=O)N1C=C(C)C[C@H]1C=N3)N=C[C@@H]1CC(C)=CN1C2=O [SG3199] + O=C(c1cc(Cc2n[nH]c(=O)c3ccccc23)ccc1F)N1CCN(C(=O)C2CC2)CC1 [Olaparib] (first compound max 0.001 µM, 7x7, partner max 10 µM)', 'label 0'),
  ('CC1(C)CCC(CN2CCN(c3ccc(C(=O)NS(=O)(=O)c4ccc(NCC5CCOCC5)c([N+](=O)[O-])c4)c(Oc4cnc5[nH]ccc5c4)c3)CC2)=C(c2ccc(Cl)cc2)C1 [Venetoclax] + C[C@@H](Nc1cc(F)cc(F)c1)c1cc(C(=O)N(C)C)cc2c(=O)cc(N3CCOCC3)oc12 [AZD8186] (first compound max 1 µM, 7x7, partner max 3 µM)', 'label 0');

query: Pick a category. Item: Cn1cnc2c(F)c(Nc3ccc(Br)cc3Cl)c(C(=O)NOCCO)cc21 [Selumetinib] + CCN(CCO)CCCOc1ccc2c(Nc3cc(CC(=O)Nc4cccc(F)c4)[nH]n3)ncnc2c1 [AZD2811] (first compound max 10 µM, 7x7, partner max 1 µM)
result: label 1

query: Pick a category. Item: CN(C)CCCOc1ccc(-c2ccc3ncc4c(c3c2)n(C2CCOCC2)c(=O)n4C)cn1 [AZD0156] + C[C@@H]1COCCN1C2=NC(=NC(=C2)C3(CC3)[S@](=N)(=O)C)C4=C5C=CNC5=NC=C4 [AZD6738] (first compound max 1 µM, 7x7, partner max 10 µM)
result: label 2

query: Pick a category. Item: Cc1c2c(nn1C)CSCc1cc(n(C)n1)CSc1cc(c3ccccc3c1)OCCCc1c(C(=O)O)n(C)c3c-2c(Cl)ccc13 [AZD5991] + CCN(CCO)CCCOc1ccc2c(Nc3cc(CC(=O)Nc4cccc(F)c4)[nH]n3)ncnc2c1 [AZD2811] (first compound max 1 µM, 7x7, partner max 1 µM)
result: label 1
